Assay: Cytotoxicity against human Lu1 cells assessed as cell viability measured by MTT assay
Assay type: functional, cell-based
readout-label: IC50 (µM)
Answers are plain numbers, in µM.

COc1ccc(C2=NN(C)c3c(c4nc5ccccc5nc4c4ccccc34)C2c2ccc(OC)cc2)cc1 (stereo not given) :: 18.2
Cc1c2ccncc2c(C)c2c1[nH]c1ccccc12 :: 1.83
COc1cccc(C2=NN(C)c3c(c4nc5ccccc5nc4c4ccccc34)C2c2cccc(OC)c2)c1 (stereo not given) :: 56

Notebook: CN1N=C(c2ccccc2)C(c2ccccc2)c2c1c1ccccc1c1nc3ccccc3nc21 (stereo not given) , IC50 read as 18.6

* * *

Tested on: HEK293
Assay: Cytotoxicity against human HEK293 cells assessed as cell viability measured by MTT assay
Format: cell-based
readout-label: IC50

Below are some compounds; for each one, tell me its IC50.
1. CN1N=C(c2ccc3ccccc3c2)C(c2ccc3ccccc3c2)c2c1c1ccccc1c1nc3ccccc3nc21 (stereo not given)
2. CN1N=C(c2ccc([N+](=O)O)cc2)C(c2ccc([N+](=O)[O-])cc2)c2c1c1ccccc1c1nc3ccccc3nc21 (stereo not given)
3. CN1N=C(c2ccccc2)C(c2ccccc2)c2c1c1ccccc1c1nc3ccccc3nc21 (stereo not given)
4. CN1N=C(c2ccc(Br)cc2)C(c2ccc(Br)cc2)c2c1c1ccccc1c1nc3ccccc3nc21 (stereo not given)
5. CN1N=C(c2ccc(Cl)cc2)C(c2ccc(Cl)cc2)c2c1c1ccccc1c1nc3ccccc3nc21 (stereo not given)
6. Cc1c2ccncc2c(C)c2c1[nH]c1ccccc12

Output line:
["> 100 µM", "> 100 µM", "> 100 µM", "> 100 µM", "> 100 µM", "6.58 µM"]

Below are some compounds; for each one, tell me its IC50.
1. CN1N=C(c2cccc(Br)c2)C(c2cccc(Br)c2)c2c1c1ccccc1c1nc3ccccc3nc21 (stereo not given)
2. CN1N=C(c2ccc(S(C)(=O)=O)cc2)C(c2ccc(S(C)(=O)=O)cc2)c2c1c1ccccc1c1nc3ccccc3nc21 (stereo not given)

Output line:
1. > 100 µM
2. > 100 µM

Below are some compounds; for each one, tell me its IC50.
1. COc1ccc(C2=NN(C)c3c(c4nc5ccccc5nc4c4ccccc34)C2c2ccc(OC)cc2)cc1 (stereo not given)
2. COc1cccc(C2=NN(C)c3c(c4nc5ccccc5nc4c4ccccc34)C2c2cccc(OC)c2)c1 (stereo not given)

Output line:
["73.4 µM", "> 100 µM"]
